Entries and their viability, T/C values follow.
System: 817829-284-R-J1-PDC complex spheroid viability
Experiment Summary: Anticancer human tumor 817829-284-R-J1-PDC patient-derived colon adenocarcinoma cell line growth inhibition [POLQ]
Condition Details: second compound 0.316 µM; first compound 3.16 µM; stronger effect = lower value

Compound	viability, T/C (%)
CNCc1ccc(-c2[nH]c3cc(F)cc4c3c2CCNC4=O)cc1 + COC1C(OC(N)=O)C(O)C(Oc2ccc3c(O)c(NC(=O)c4ccc(O)c(CC=C(C)C)c4)c(=O)oc3c2C)OC1(C)C	74.3
C=CC(=O)N1CCN(c2nc(=O)n(-c3c(C)ccnc3C(C)C)c3nc(-c4c(O)cccc4F)c(F)cc23)C(C)C1 (stereo not drawn) + Cc1cccc(N(C)C(=O)C2C(O)CCN2c2nc(C)cc(C(F)(F)F)c2C#N)c1	83.1
CCCS(=O)(=O)Nc1ccc(F)c(C(=O)c2c[nH]c3ncc(-c4ccc(Cl)cc4)cc23)c1F + Cc1cccc(N(C)C(=O)C2C(O)CCN2c2nc(C)cc(C(F)(F)F)c2C#N)c1	63.8

----------
Test system: 817829-284-R-J1-PDC complex spheroid viability
Experiment Summary: Anticancer human tumor 817829-284-R-J1-PDC cell line growth inhibition [POLQ]; active = viability on the fitted dose curve at most 10% of control; inactive = the rest;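 also: spheroids exposed to compounds for 7 days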
Condition Details: second compound 0.1 µM; first compound 0.316 µM
Outcome codes: active, inactive

Molecule	Experimental System	Class Assignment
COc1cc(C2c3cc4c(cc3C(OC3OC5COC(C)OC5C(O)C3O)C3COC(=O)C23)OCO4)cc(OC)c1O (stereo not drawn) + Nc1ccc(C#CCN(C(=O)Cc2ncc(C(F)(F)F)cc2C(F)(F)F)c2ccc(F)cc2)nn1	817829-284-R-J1-PDC complex spheroid viability	inactive
Nc1ccn(C2OC(CO)C(O)C2(F)F)c(=O)n1 (stereo not drawn) + Nc1ccc(C#CCN(C(=O)Cc2ncc(C(F)(F)F)cc2C(F)(F)F)c2ccc(F)cc2)nn1	817829-284-R-J1-PDC complex spheroid viability	active
C=CCn1c(=O)c2cnc(Nc3ccc(N4CCN(C)CC4)cc3)nc2n1-c1cccc(C(C)(C)O)n1 + Cc1cccc(N(C)C(=O)C2C(O)CCN2c2nc(C)cc(C(F)(F)F)c2C#N)c1	817829-284-R-J1-PDC complex spheroid viability	inactive

----------
System: 817829-284-R-J1-PDC complex spheroid viability
Experiment Summary: Anticancer human tumor 817829-284-R-J1-PDC cell line growth inhibition [POLQ]; active = viability on the fitted dose curve at most 10% of control; inactive = the rest;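 also: spheroids exposed to compounds for 7 days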
Condition Details: second compound 10 µM; first compound 0.316 µM
Outcome codes: active, inactive

Compound	Experimental System	Class Assignment
CCc1cc2c(N3CCc4c(cc(Cn5ccnc5)cc4-c4cn(C)nc4C(F)(F)F)C3=O)cc(C)nc2c(OC)n1 + COC1C(OC(N)=O)C(O)C(Oc2ccc3c(O)c(NC(=O)c4ccc(O)c(CC=C(C)C)c4)c(=O)oc3c2C)OC1(C)C	817829-284-R-J1-PDC complex spheroid viability	inactive
CCc1cc2c(N3CCc4c(cc(Cn5ccnc5)cc4-c4cn(C)nc4C(F)(F)F)C3=O)ccnc2c(OC)n1 + Nc1ccc(C#CCN(C(=O)Cc2ncc(C(F)(F)F)cc2C(F)(F)F)c2ccc(F)cc2)nn1	817829-284-R-J1-PDC complex spheroid viability	inactive
COc1cc2cc(C(=O)CCC(=O)O)sc2cc1OC + Cc1cccc(N(C)C(=O)C2C(O)CCN2c2nc(C)cc(C(F)(F)F)c2C#N)c1	817829-284-R-J1-PDC complex spheroid viability	inactive
CC(C)n1c(=O)n(C)c2cnc3cc(F)c(-c4ccc(OCCCN5CCCCC5)nc4)cc3c21 + Nc1ccc(C#CCN(C(=O)Cc2ncc(C(F)(F)F)cc2C(F)(F)F)c2ccc(F)cc2)nn1	817829-284-R-J1-PDC complex spheroid viability	inactive
CCc1c2c(nc3ccc(O)cc13)-c1cc3c(c(=O)n1C2)COC(=O)[C@]3(O)CC + Cc1cccc(N(C)C(=O)C2C(O)CCN2c2nc(C)cc(C(F)(F)F)c2C#N)c1	817829-284-R-J1-PDC complex spheroid viability	active
O=C(c1cc(Cc2n[nH]c(=O)c3ccccc23)ccc1F)N1CCN(C(=O)C2CC2)CC1 + COC1C(OC(N)=O)C(O)C(Oc2ccc3c(O)c(NC(=O)c4ccc(O)c(CC=C(C)C)c4)c(=O)oc3c2C)OC1(C)C	817829-284-R-J1-PDC complex spheroid viability	inactive
CC1COCCN1c1cc(C2(O)CC3CCC(C2)O3)c2cnn(-c3ccn[nH]3)c2n1 (stereo not given) + Nc1ccc(C#CCN(C(=O)Cc2ncc(C(F)(F)F)cc2C(F)(F)F)c2ccc(F)cc2)nn1	817829-284-R-J1-PDC complex spheroid viability	active
COc1cccc(OCCCN)c1-c1cc(Nc2cnc(C#N)cn2)n[nH]1 + COC1C(OC(N)=O)C(O)C(Oc2ccc3c(O)c(NC(=O)c4ccc(O)c(CC=C(C)C)c4)c(=O)oc3c2C)OC1(C)C	817829-284-R-J1-PDC complex spheroid viability	active
O=C(Nc1ccc(O)c(NS(=O)(=O)c2ccc(F)cc2)c1)c1ccc(-c2ccccc2)cc1 + COC1C(OC(N)=O)C(O)C(Oc2ccc3c(O)c(NC(=O)c4ccc(O)c(CC=C(C)C)c4)c(=O)oc3c2C)OC1(C)C	817829-284-R-J1-PDC complex spheroid viability	inactive
C=CCn1c(=O)c2cnc(Nc3ccc(N4CCN(C)CC4)cc3)nc2n1-c1cccc(C(C)(C)O)n1 + Nc1ccc(C#CCN(C(=O)Cc2ncc(C(F)(F)F)cc2C(F)(F)F)c2ccc(F)cc2)nn1	817829-284-R-J1-PDC complex spheroid viability	inactive

----------
Entries and their IC50 values follow.
System: 817829-284-R-J1-PDC complex spheroid viability
Experiment Summary: Anticancer human tumor 817829-284-R-J1-PDC cell line growth inhibition [POLQ];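 also: spheroids exposed to compounds for 7 days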
Condition Details: curve of first compound; second compound 0.1 µM

Compound	Qualifier Operator	IC50, µM
CC(C)n1c(=O)n(C)c2cnc3cc(F)c(-c4ccc(OCCCN5CCCCC5)nc4)cc3c21 + COC1C(OC(N)=O)C(O)C(Oc2ccc3c(O)c(NC(=O)c4ccc(O)c(CC=C(C)C)c4)c(=O)oc3c2C)OC1(C)C	=	7.06
CC(=O)O[C@H]1C(=O)[C@@]2(C)[C@H]([C@H](OC(=O)c3ccccc3)[C@]3(O)C[C@H](OC(=O)[C@H](O)[C@@H](NC(=O)c4ccccc4)c4ccccc4)C(C)=C1C3(C)C)[C@]1(OC(C)=O)CO[C@@H]1C[C@@H]2O + COC1C(OC(N)=O)C(O)C(Oc2ccc3c(O)c(NC(=O)c4ccc(O)c(CC=C(C)C)c4)c(=O)oc3c2C)OC1(C)C	<	0.00949

----------
Tested on: 817829-284-R-J1-PDC complex spheroid viability
Experiment Summary: Anticancer human tumor 817829-284-R-J1-PDC cell line growth inhibition [POLQ];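 also: spheroids exposed to compounds for 7 days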;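 as to viability, T/C: 100% = DMSO vehicle-treated spheroids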
Condition Details: second compound 0.316 µM; first compound 0.1 µM; stronger effect = lower value
Entries and their viability, T/C values follow.
Measured Property: viability, T/C (%)

Molecule	Measured Property	Measurement Unit	Number
C=CC(=O)N1CCN(c2nc(=O)n(-c3c(C)ccnc3C(C)C)c3nc(-c4c(O)cccc4F)c(F)cc23)C(C)C1 (stereo not given) + COC1C(OC(N)=O)C(O)C(Oc2ccc3c(O)c(NC(=O)c4ccc(O)c(CC=C(C)C)c4)c(=O)oc3c2C)OC1(C)C	viability, T/C	%	127
COc1cc(C2c3cc4c(cc3C(OC3OC5COC(C)OC5C(O)C3O)C3COC(=O)C23)OCO4)cc(OC)c1O (stereo not given) + COC1C(OC(N)=O)C(O)C(Oc2ccc3c(O)c(NC(=O)c4ccc(O)c(CC=C(C)C)c4)c(=O)oc3c2C)OC1(C)C	viability, T/C	%	34.5
CC1COCCN1c1cc(C2(S(C)(=N)=O)CC2)nc(-c2ccnc3[nH]ccc23)n1 (stereo not given) + COC1C(OC(N)=O)C(O)C(Oc2ccc3c(O)c(NC(=O)c4ccc(O)c(CC=C(C)C)c4)c(=O)oc3c2C)OC1(C)C	viability, T/C	%	76.3
CCCS(=O)(=O)Nc1ccc(F)c(C(=O)c2c[nH]c3ncc(-c4ccc(Cl)cc4)cc23)c1F + Cc1cccc(N(C)C(=O)C2C(O)CCN2c2nc(C)cc(C(F)(F)F)c2C#N)c1	viability, T/C	%	89.6
CC1COCCN1c1cc(-c2ccnn2C)c2ccnc(-c3ccn[nH]3)c2n1 (stereo not given) + Cc1cccc(N(C)C(=O)C2C(O)CCN2c2nc(C)cc(C(F)(F)F)c2C#N)c1	viability, T/C	%	15.3

----------
System: 817829-284-R-J1-PDC complex spheroid viability
Experiment Summary: Anticancer human tumor 817829-284-R-J1-PDC cell line growth inhibition [POLQ]; active means viability on the fitted dose curve at most 10% of control; inactive means the rest;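 also: spheroids exposed to compounds for 7 days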
Condition Details: second compound 0.1 µM; first compound 0.316 µM
Description: Multicellular complex tumor spheroid response to Polymerase (POL) inhibitors (novobiocin, ART-558, RP6685) in combination with a variety of drugs and investigational agents in selected tumor cell lines The POL inhibitors (novobiocin, ART-558, and RP6685) were evaluated both individually and in combination with standard of care and investigational anticancer small molecules within a complex spheroid model of solid tumors. . […]
Outcome codes: t for active, f for inactive

Molecule	Experimental System	Class Assignment
CC1COCCN1c1cc(C2(O)CC3CCC(C2)O3)c2cnn(-c3ccn[nH]3)c2n1 (stereo not drawn) + Cc1cccc(N(C)C(=O)C2C(O)CCN2c2nc(C)cc(C(F)(F)F)c2C#N)c1	817829-284-R-J1-PDC complex spheroid viability	t
COc1cc(C2c3cc4c(cc3C(OC3OC5COC(C)OC5C(O)C3O)C3COC(=O)C23)OCO4)cc(OC)c1O (stereo not drawn) + COC1C(OC(N)=O)C(O)C(Oc2ccc3c(O)c(NC(=O)c4ccc(O)c(CC=C(C)C)c4)c(=O)oc3c2C)OC1(C)C	817829-284-R-J1-PDC complex spheroid viability	f
CCCS(=O)(=O)Nc1ccc(F)c(C(=O)c2c[nH]c3ncc(-c4ccc(Cl)cc4)cc23)c1F + COC1C(OC(N)=O)C(O)C(Oc2ccc3c(O)c(NC(=O)c4ccc(O)c(CC=C(C)C)c4)c(=O)oc3c2C)OC1(C)C	817829-284-R-J1-PDC complex spheroid viability	f

Values were extracted from PubChem BioAssay AID1963839.
